# Test system: ulcers in rats in the stomach region
# assay_notes: Determination of anti-ulcer activity (Shay method, ulcers induced in rats by pyloric ligation)
# Type: in vivo
# stated_conditions: 100 mg/kg, via the mouth, 16 hours after treatment
endpoint_label: pH of gastric liquid, treated animals
Respond with the number and no other words.

Q) Consider the compound O=C(CC(O)C(=O)O)c1ccc(Cl)cc1Cl (centres unmarked) . State its measured pH of gastric liquid, treated animals.
A) 4.4

Q) Consider the compound COc1cc(OC)cc(C(=O)CC(O)C(=O)O)c1 (centres unmarked) . State its measured pH of gastric liquid, treated animals.
A) 3.0

Q) Consider the compound O=C(CC(O)C(=O)O)c1ccc(Cl)c(Cl)c1 (centres unmarked) . State its measured pH of gastric liquid, treated animals.
A) 4.2

Q) Consider the compound O=C(CC(O)C(=O)O)c1ccc([N+](=O)[O-])cc1 (centres unmarked) . State its measured pH of gastric liquid, treated animals.
A) 3.0

Q) Consider the compound O=C(CC(O)C(=O)O)c1ccc(Br)cc1 (centres unmarked) . State its measured pH of gastric liquid, treated animals.
A) 3.4

* * *

Exercise: for every item that follows, state its recorded LD50.
# assay_notes: Determination of Acute Toxicity (oral LD50 in mice)
# stated_conditions: mouse, in vivo

Q) Consider the compound O=C(CC(O)C(=O)O)c1ccc(Br)cc1 (centres unmarked) . State its measured LD50.
A) > 1000 mg/kg

Q) Consider the compound O=C(CC(O)C(=O)O)c1ccc(Cl)cc1Cl (centres unmarked) . State its measured LD50.
A) > 1000 mg/kg

Q) Consider the compound O=C(CC(O)C(=O)O)c1ccccc1[N+](=O)[O-] (centres unmarked) . State its measured LD50.
A) > 1000 mg/kg

Q) Consider the compound O=C(CC(O)C(=O)O)c1ccc([N+](=O)[O-])cc1 (centres unmarked) . State its measured LD50.
A) > 1000 mg/kg

Q) Consider the compound O=C(CC(O)C(=O)O)c1ccc(Cl)c(Cl)c1 (centres unmarked) . State its measured LD50.
A) > 1000 mg/kg

Q) Consider the compound O=C(CC(O)C(=O)O)c1ccc(Cl)cc1 (centres unmarked) . State its measured LD50.
A) > 1000 mg/kg

Q) Consider the compound COc1cc(OC)cc(C(=O)CC(O)C(=O)O)c1 (centres unmarked) . State its measured LD50.
A) > 1000 mg/kg

Q) Consider the compound COc1ccc(C(=O)CC(O)C(=O)O)cc1OC (centres unmarked) . State its measured LD50.
A) > 1000 mg/kg
